Assay: qHTS assay to identify small molecule agonists of the endoplasmic reticulum stress response signaling pathway - cell viability counter screen (AID 1159517);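 further: HeLa cells carrying an ER stress response element beta-lactamase reporter; nearly all actives have a fitted effect of over 50% in size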
Conditions: ESRE-bla HeLa viability, CellTiter-Glo luminescence, 5 h; series mostly up to 61 µM
Inconclusive results are not listed. Calls of active or inactive are those of the source. The call rests on the fitted dose curve.
Give your call using only these classes: true = active, false = inactive

Record excerpt, results attached:
molecule	label class
Oc1cccc(O)c1O	false
CCC(OCCCOC)OC(C)=O (centres undefined)	false
O=C(O)C[C@H](NC(=O)OCc1ccccc1)C(=O)O	false
CC1=Nc2ccc3ccccc3c2C1(C)C	false
CC(C)COCC(CN(Cc1ccccc1)c1ccccc1)N1CCCC1 (centres undefined)	false

Exercise: Name the outcome recorded for Cc1ccc(Cl)c(Nc2ccccc2C(=O)O)c1Cl in the assay.
Solution: false

Exercise: Name the outcome recorded for CC[C@]1(O)C[C@H]2CN(CCc3c([nH]c4ccccc34)[C@@](C(=O)OC)(c3cc4c(cc3OC)N(C=O)[C@H]3[C@@](O)(C(=O)OC)[C@H](OC(C)=O)[C@]5(CC)C=CCN6CC[C@]43[C@@H]65)C2)C1 in the assay.
Solution: false

Exercise: Name the outcome recorded for COC(=O)C1=C(C)NC(C)=C(C(=O)O[C@@H]2CCCN(Cc3ccccc3)C2)[C@@H]1c1cccc([N+](=O)[O-])c1 in the assay.
Solution: false

Exercise: Name the outcome recorded for C[C@H]1c2cccc(O)c2C(O)=C2C(=O)[C@]3(O)C(O)=C(C(N)=O)C(=O)[C@@H](N(C)C)[C@@H]3[C@@H](O)[C@@H]21 in the assay.
Solution: false

Exercise: Name the outcome recorded for CCC1CO1 (centres undefined) in the assay.
Solution: false

----------
Test: qHTS assay to identify small molecule agonists of the hypoxia (HIF-1) signaling pathway - cell viability counter screen (AID 1224844); further: nearly all actives have a fitted effect of over 50% in size
Details: HRE-bla ME-180 viability, CellTiter-Glo luminescence, 17 h; series mostly up to 76.8 µM
Inconclusive results are not listed. The source made the active and inactive calls. Calls follow the shape of the full dose curve.
value kind: outcome

COc1ccccc1N1CCN(CCCCNC(=O)c2ccc(-c3ccc(C(C)=O)cc3)cc2)CC1 inactive
O=C1c2ccccc2C(=O)C1c1ccc(Br)cc1 inactive
CCCCCCNC(=O)n1cc(F)c(=O)[nH]c1=O inactive

----------
Assay: qHTS assay to identify small molecule agonists of the farnesoid-X-receptor (FXR) signaling pathway - cell viability counter screen (AID 743218); further: nearly all actives have a fitted effect of over 45% in size
Conditions: FXR-bla HEK293T viability, CellTiter-Glo luminescence, 16 h; series mostly up to 62.6 µM
Records with an inconclusive call do not appear. Calls of active or inactive are those of the source. Calls follow the shape of the dose curve; as a rule, active = well fitted cell-killing curve with a large enough effect in the repeat runs; inconclusive = weak or mixed curves, or effect the other way; inactive = no such curve, though single readings can be large or run the other way.
Give your call using only these classes: label 1 (active), label 0 (inactive)

Exercise: Name the outcome recorded for O=C1c2ccccc2C(=O)N1CCc1noc(-c2ccc(CN3CCCCCC3)s2)n1 in the assay.
Solution: label 0

Exercise: Name the outcome recorded for O=C1Cc2cc(Cl)ccc2N1 in the assay.
Solution: label 0

Exercise: Name the outcome recorded for CC(=O)OCCN(CCOC(C)=O)c1ccc(N=Nc2ccc([N+](=O)[O-])cc2C#N)cc1 in the assay.
Solution: label 0

----------
Assay: A CellTox Green Cytotoxicity Assay to monitor cytotoxicity in HepG2 cells - 24 hour (AID 1224878); further: nearly all actives have a fitted effect of over 45% in size
Details: CellTox Green fluorescence; series mostly up to 76.8 µM
Records with an inconclusive call do not appear. Activity calls are given as the source filed them. Calls follow the shape of the dose curve; as a rule, active = well fitted activation curve with a large enough effect in the repeat runs; inconclusive = weak or mixed curves; inactive = flat fitted curve, though single readings scatter.
Give your call using only these classes: active, inactive

Record excerpt, results attached:
molecule	label class
CCOc1ccc(Cc2nccc3cc(OCC)c(OCC)cc23)cc1OCC	inactive
O=C1NCCN1CCO	inactive
CCCCCCCCOc1ccc(C(=O)O)cc1	inactive
CC(=O)[C@H]1[C@H](C#N)C[C@H]2[C@@H]3CC=C4C[C@@H](O)CC[C@]4(C)[C@H]3CC[C@@]21C	inactive
C/C=C\C/C=C/CCCCCCCCOC(C)=O	inactive
CN1C(C(=O)Nc2ccccn2)=C(O)c2sccc2S1(=O)=O	inactive
CCCCN(CCN(CCCC)C(=O)N1CCOCC1)C(=O)N1CCOCC1	inactive
Nc1ccc(N=Nc2ccccc2)c(N)c1	inactive
CC1CC(OC(=O)C(O)c2ccccc2)CC(C)(C)N1C (stereo not drawn)	inactive
C[C@@H](CN(C)C)CN1c2ccccc2Sc2ccccc21	active

Exercise: Name the outcome recorded for CN(C)CCC=C1c2ccccc2C=Cc2ccccc21 in the assay.
Solution: active

Exercise: Name the outcome recorded for CC(=O)Nc1cc(S(=O)(=O)O)cc2cc(S(=O)(=O)O)c(N=Nc3ccccc3)c(O)c12 in the assay.
Solution: inactive

Exercise: Name the outcome recorded for CC(C)C(O)(c1ccc(OC(F)(F)F)cc1)c1cncnc1 (stereo not drawn) in the assay.
Solution: inactive

Exercise: Name the outcome recorded for NCCNCCO in the assay.
Solution: inactive

Exercise: Name the outcome recorded for N#[N+]c1ccc2c(S(=O)(=O)[O-])cccc2c1O in the assay.
Solution: inactive

Exercise: Name the outcome recorded for Cc1ccc(CO)cc1 in the assay.
Solution: inactive

Exercise: Name the outcome recorded for CC1=C(Br)C(=O)C(Br)=C/C1=C(/c1ccccc1S(=O)(=O)O)c1cc(Br)c(O)c(Br)c1C in the assay.
Solution: inactive

Exercise: Name the outcome recorded for O=C(OCC(O)CO)c1ccccc1Nc1ccnc2cc(Cl)ccc12 (stereo not drawn) in the assay.
Solution: inactive

Exercise: Name the outcome recorded for C=CCc1ccccc1OCC(O)CNC(C)C (stereo not drawn) in the assay.
Solution: inactive

Exercise: Name the outcome recorded for CN1CC(=O)N2[C@H](c3ccc4c(c3)OCO4)c3[nH]c4ccccc4c3C[C@@H]2C1=O in the assay.
Solution: inactive

Exercise: Name the outcome recorded for O=C(O)CCCCCCCCCCCBr in the assay.
Solution: inactive

Exercise: Name the outcome recorded for CC1(C)S[C@@H]2[C@H](NC(=O)C(c3ccccc3)S(=O)(=O)O)C(=O)N2[C@H]1C(=O)O (stereo partly drawn) in the assay.
Solution: inactive

Exercise: Name the outcome recorded for C[C@@]12CCC[C@H]1[C@@H]1CC[C@H]3C[C@@H](O)CC[C@]3(C)[C@H]1CC2 in the assay.
Solution: inactive
